Data credit: paper PMC7922803

assay: Pharmacokinetic study after single oral administration to dogs; assay type: in vivo; conditions: male, beagle, plasma; dog, representative sample 4 h after oral 3 mg/kg; read-out: Plasma concentration of DA-7010
quantity_kind: concentration at 4 h
Please format your answer as a value with the unit trailing.

Please report the recorded concentration at 4 h for C[C@@H]1COB2O[C@H](CN)c3cccc(c32)O1 .
1950 ng/mL

---

assay: Stability of DA-7010 in rat plasma under various storage conditions; assay type: in vitro ADME; settings: short term (room temperature 8 h), nominal 400 ng/mL, n = 3, mean ± SD
quantity_kind: recovery at 8 h, 400 ng/mL (%)
Value expressed in %; do not type the unit.

Please report the recorded recovery at 8 h, 400 ng/mL for C[C@@H]1COB2O[C@H](CN)c3cccc(c32)O1 [DA-7010] .
97.9

---

experiment: Pharmacokinetic study after single oral administration to mice; type: in vivo; details: male, ICR, mouse, plasma; mice, single oral dose 3 mg/kg, from mean concentration–time profile
quantity_kind: Cmax
Please format your answer as a value with the unit trailing.

Please report the recorded Cmax for C[C@@H]1COB2O[C@H](CN)c3cccc(c32)O1 .
1280 ng/mL

---

experiment: Stability of DA-7010 in rat plasma under various storage conditions; type: in vitro ADME; conditions: prepared plasma samples in LC vials, post-preparative (prepared samples 4 °C 24 h), nominal 400 ng/mL, n = 3, mean ± SD
quantity_kind: recovery at 24 h, 400 ng/mL (%)
Value expressed in %; do not type the unit.

Please report the recorded recovery at 24 h, 400 ng/mL for C[C@@H]1COB2O[C@H](CN)c3cccc(c32)O1 .
101

---

experiment: Pharmacokinetic study after single oral administration to dogs; type: in vivo; settings: male, beagle, dog, plasma; dogs (n = 4), single oral dose 3 mg/kg in gelatin capsule, mean ± SD; read-out: Terminal half-life
quantity_kind: half-life
Please format your answer as a value with the unit trailing.

Please report the recorded half-life for C[C@@H]1COB2O[C@H](CN)c3cccc(c32)O1 .
452 min

---

test: Stability of DA-7010 in rat plasma under various storage conditions; format: in vitro ADME; settings: long term (‒20 °C over 1 month), nominal 30 ng/mL, n = 3, mean ± SD
quantity_kind: recovery at 1 month, 30 ng/mL (%)
Value expressed in %; do not type the unit.

Please report the recorded recovery at 1 month, 30 ng/mL for C[C@@H]1COB2O[C@H](CN)c3cccc(c32)O1 .
85.5

---

test: Stability of DA-7010 in rat plasma under various storage conditions; format: in vitro ADME; conditions: 3 freeze/thaw (–20 °C/room temperature) cycles, nominal 400 ng/mL, n = 3, mean ± SD
quantity_kind: recovery at 400 ng/mL (%)
Value expressed in %; do not type the unit.

Please report the recorded recovery at 400 ng/mL for C[C@@H]1COB2O[C@H](CN)c3cccc(c32)O1 .
94.8

---

Experiment: Stability of DA-7010 in mouse plasma under various storage conditions
Assay type: in vitro ADME
Settings: long term (‒20 °C over 1 month), nominal 30 ng/mL, n = 3, mean ± SD
Description: The stability of DA-7010 in the plasma from the mice, rats, and dogs was evaluated by analyzing 3 replicates of low, medium, and high QC samples under various storage conditions: the bench-top short-term stability (at room temperature for 8 h), post-preparative stability (prepared samples kept in LC vials at 4 °C for 24 h), freeze–thaw stability (3 freeze/thaw (−20 °C/room temperature) cycles), and long-term freezing stability (−20 °C for 1 month). […]
quantity_kind: recovery at 1 month, 30 ng/mL (%)
Value expressed in %; do not type the unit.

Please report the recorded recovery at 1 month, 30 ng/mL for C[C@@H]1COB2O[C@H](CN)c3cccc(c32)O1 [DA-7010] .
106

---

Experiment: Stability of DA-7010 in dog plasma under various storage conditions
Format: in vitro ADME
Conditions: prepared plasma samples in LC vials, post-preparative (prepared samples 4 °C 24 h), nominal 8000 ng/mL, n = 3, mean ± SD
Protocol: The stability of DA-7010 in the plasma from the mice, rats, and dogs was evaluated by analyzing 3 replicates of low, medium, and high QC samples under various storage conditions: the bench-top short-term stability (at room temperature for 8 h), post-preparative stability (prepared samples kept in LC vials at 4 °C for 24 h), freeze–thaw stability (3 freeze/thaw (−20 °C/room temperature) cycles), and long-term freezing stability (−20 °C for 1 month). […]
quantity_kind: recovery at 24 h, 8000 ng/mL (%)
Value expressed in %; do not type the unit.

Please report the recorded recovery at 24 h, 8000 ng/mL for C[C@@H]1COB2O[C@H](CN)c3cccc(c32)O1 .
116

---

test: Stability of DA-7010 in mouse plasma under various storage conditions; type: in vitro ADME; details: long term (‒20 °C over 1 month), nominal 400 ng/mL, n = 3, mean ± SD
quantity_kind: recovery at 1 month, 400 ng/mL (%)
Value expressed in %; do not type the unit.

Please report the recorded recovery at 1 month, 400 ng/mL for C[C@@H]1COB2O[C@H](CN)c3cccc(c32)O1 [DA-7010] .
95.5

---

test: Pharmacokinetic study after single oral administration to dogs; type: in vivo; conditions: male, beagle, dog, plasma; dogs (n = 4), single oral dose 3 mg/kg in gelatin capsule, mean ± SD
quantity_kind: AUC(0-inf)

Please report the recorded AUC(0-inf) for C[C@@H]1COB2O[C@H](CN)c3cccc(c32)O1 .
21800 ng·h/mL

---

test: Stability of DA-7010 in dog plasma under various storage conditions; type: in vitro ADME; settings: short term (room temperature 8 h), nominal 8000 ng/mL, n = 3, mean ± SD
quantity_kind: recovery at 8 h, 8000 ng/mL (%)
Value expressed in %; do not type the unit.

Please report the recorded recovery at 8 h, 8000 ng/mL for C[C@@H]1COB2O[C@H](CN)c3cccc(c32)O1 [DA-7010] .
108

---

assay: Stability of DA-7010 in dog plasma under various storage conditions; assay type: in vitro ADME; conditions: prepared plasma samples in LC vials, post-preparative (prepared samples 4 °C 24 h), nominal 30 ng/mL, n = 3, mean ± SD
quantity_kind: recovery at 24 h, 30 ng/mL (%)
Value expressed in %; do not type the unit.

Please report the recorded recovery at 24 h, 30 ng/mL for C[C@@H]1COB2O[C@H](CN)c3cccc(c32)O1 [DA-7010] .
110

---

experiment: Pharmacokinetic study after single oral administration to dogs; assay type: in vivo; settings: male, beagle, dog, plasma; dogs (n = 4), single oral dose 3 mg/kg in gelatin capsule, median (range)
quantity_kind: Tmax (h)
Value expressed in h; do not type the unit.

Please report the recorded Tmax for C[C@@H]1COB2O[C@H](CN)c3cccc(c32)O1 .
1

---

assay: Stability of DA-7010 in mouse plasma under various storage conditions; type: in vitro ADME; conditions: long term (‒20 °C over 1 month), nominal 8000 ng/mL, n = 3, mean ± SD
quantity_kind: recovery at 1 month, 8000 ng/mL (%)
Value expressed in %; do not type the unit.

Please report the recorded recovery at 1 month, 8000 ng/mL for C[C@@H]1COB2O[C@H](CN)c3cccc(c32)O1 .
88.5

---

assay: Stability of DA-7010 in dog plasma under various storage conditions; assay type: in vitro ADME; settings: 3 freeze/thaw (–20 °C/room temperature) cycles, nominal 30 ng/mL, n = 3, mean ± SD
quantity_kind: recovery at 30 ng/mL (%)
Value expressed in %; do not type the unit.

Please report the recorded recovery at 30 ng/mL for C[C@@H]1COB2O[C@H](CN)c3cccc(c32)O1 .
110

---

experiment: Stability of DA-7010 in mouse plasma under various storage conditions; format: in vitro ADME; conditions: 3 freeze/thaw (–20 °C/room temperature) cycles, nominal 400 ng/mL, n = 3, mean ± SD
quantity_kind: recovery at 400 ng/mL (%)
Value expressed in %; do not type the unit.

Please report the recorded recovery at 400 ng/mL for C[C@@H]1COB2O[C@H](CN)c3cccc(c32)O1 .
91.2

---

assay: Stability of DA-7010 in mouse plasma under various storage conditions; format: in vitro ADME; conditions: 3 freeze/thaw (–20 °C/room temperature) cycles, nominal 8000 ng/mL, n = 3, mean ± SD
quantity_kind: recovery at 8000 ng/mL (%)
Value expressed in %; do not type the unit.

Please report the recorded recovery at 8000 ng/mL for C[C@@H]1COB2O[C@H](CN)c3cccc(c32)O1 .
87.7

---

test: Stability of DA-7010 in rat plasma under various storage conditions; format: in vitro ADME; settings: long term (‒20 °C over 1 month), nominal 400 ng/mL, n = 3, mean ± SD
quantity_kind: recovery at 1 month, 400 ng/mL (%)
Value expressed in %; do not type the unit.

Please report the recorded recovery at 1 month, 400 ng/mL for C[C@@H]1COB2O[C@H](CN)c3cccc(c32)O1 [DA-7010] .
95.2
